# Test system: 415267-285-R-J2-PDC complex spheroid viability;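 note: spheroids exposed to compounds for one week before readout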
# assayText: Anticancer human tumor 415267-285-R-J2-PDC patient-derived breast carcinoma cell line growth inhibition [POLQ]
# runConditions: curve of first compound; second compound 0.316 µM
Assign IC50 to each entry below.

Problem: Identify the reported IC50 for the following entry. CC(=O)O[C@H]1C(=O)[C@@]2(C)[C@H]([C@H](OC(=O)c3ccccc3)[C@]3(O)C[C@H](OC(=O)[C@H](O)[C@@H](NC(=O)c4ccccc4)c4ccccc4)C(C)=C1C3(C)C)[C@]1(OC(C)=O)CO[C@@H]1C[C@@H]2O + Nc1ccc(C#CCN(C(=O)Cc2ncc(C(F)(F)F)cc2C(F)(F)F)c2ccc(F)cc2)nn1
Result: < 9.49 nM

Problem: Identify the reported IC50 for the following entry. C=CC(=O)N1CCN(c2nc(=O)n(-c3c(C)ccnc3C(C)C)c3nc(-c4c(O)cccc4F)c(F)cc23)C(C)C1 (stereo not given) + Cc1cccc(N(C)C(=O)C2C(O)CCN2c2nc(C)cc(C(F)(F)F)c2C#N)c1
Result: > 10000 nM

Problem: Identify the reported IC50 for the following entry. CNCc1ccc(-c2[nH]c3cc(F)cc4c3c2CCNC4=O)cc1 + Cc1cccc(N(C)C(=O)C2C(O)CCN2c2nc(C)cc(C(F)(F)F)c2C#N)c1
Result: > 10000 nM

Problem: Identify the reported IC50 for the following entry. Cn1ncnc1[C@H]1c2n[nH]c(=O)c3cc(F)cc(c23)N[C@@H]1c1ccc(F)cc1 + Cc1cccc(N(C)C(=O)C2C(O)CCN2c2nc(C)cc(C(F)(F)F)c2C#N)c1
Result: > 100 nM

Problem: Identify the reported IC50 for the following entry. O=C(Nc1ccc(O)c(NS(=O)(=O)c2ccc(F)cc2)c1)c1ccc(-c2ccccc2)cc1 + Nc1ccc(C#CCN(C(=O)Cc2ncc(C(F)(F)F)cc2C(F)(F)F)c2ccc(F)cc2)nn1
Result: > 10000 nM

Problem: Identify the reported IC50 for the following entry. COc1ccc([C@@H](O)c2cc(-c3ncnc4cc(N5CCOCC5)ccc34)c(F)cc2Cl)nn1 + COC1C(OC(N)=O)C(O)C(Oc2ccc3c(O)c(NC(=O)c4ccc(O)c(CC=C(C)C)c4)c(=O)oc3c2C)OC1(C)C
Result: 7090 nM

Problem: Identify the reported IC50 for the following entry. CC1COCCN1c1cc(C2(S(C)(=N)=O)CC2)nc(-c2ccnc3[nH]ccc23)n1 (stereo not given) + Nc1ccc(C#CCN(C(=O)Cc2ncc(C(F)(F)F)cc2C(F)(F)F)c2ccc(F)cc2)nn1
Result: 592 nM

Problem: Identify the reported IC50 for the following entry. CCc1cc2c(N3CCc4c(cc(Cn5ccnc5)cc4-c4cn(C)nc4C(F)(F)F)C3=O)ccnc2c(OC)n1 + Cc1cccc(N(C)C(=O)C2C(O)CCN2c2nc(C)cc(C(F)(F)F)c2C#N)c1
Result: > 10000 nM

Problem: Identify the reported IC50 for the following entry. C=CCn1c(=O)c2cnc(Nc3ccc(N4CCN(C)CC4)cc3)nc2n1-c1cccc(C(C)(C)O)n1 + COC1C(OC(N)=O)C(O)C(Oc2ccc3c(O)c(NC(=O)c4ccc(O)c(CC=C(C)C)c4)c(=O)oc3c2C)OC1(C)C
Result: 262 nM

Problem: Identify the reported IC50 for the following entry. CC1COCCN1c1cc(C2(O)CC3CCC(C2)O3)c2cnn(-c3ccn[nH]3)c2n1 (stereo not given) + Nc1ccc(C#CCN(C(=O)Cc2ncc(C(F)(F)F)cc2C(F)(F)F)c2ccc(F)cc2)nn1
Result: < 31.6 nM
